Here the recorded IC50 is given for each entry.
# tested_on: Mu-type opioid receptor (Homo sapiens, UniProt P35372)
# Sequence (P35372 whole entry): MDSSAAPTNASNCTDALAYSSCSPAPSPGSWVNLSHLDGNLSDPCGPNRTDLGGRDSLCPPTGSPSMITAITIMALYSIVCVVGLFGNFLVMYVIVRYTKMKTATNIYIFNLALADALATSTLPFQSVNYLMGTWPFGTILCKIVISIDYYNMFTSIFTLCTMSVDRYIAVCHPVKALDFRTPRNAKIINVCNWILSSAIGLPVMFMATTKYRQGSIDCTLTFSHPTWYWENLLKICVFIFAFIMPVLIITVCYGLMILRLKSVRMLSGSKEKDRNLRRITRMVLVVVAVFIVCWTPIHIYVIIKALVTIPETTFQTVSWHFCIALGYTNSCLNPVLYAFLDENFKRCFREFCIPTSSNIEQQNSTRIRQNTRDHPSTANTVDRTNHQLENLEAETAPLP
# procedure_summary: DRUGMATRIX: Opiate mu (OP3, MOP) radioligand binding (ligand: [3H] Diprenorphine)
# Assay type: cell membranes, CHO-K1, Membrane
# condition_summary: Not Active = under 50% inhibition at 10 µM; read-out: IC50

- molecule: "c1ccc2sc(SSc3nc4ccccc4s3)nc2c1 [BENZOTHIAZYL DISULFIDE]"
  u: "µM"
  IC50: 3.11
- molecule: "CCN(CC)C(=S)SSC(=S)N(CC)CC"
  u: "µM"
  IC50: 3.51

###

# procedure_summary: DRUGMATRIX: Sodium/nucleoside co-transporter radioligand binding (ligand: nitrobenzylthioinosine)
# Type: cell membranes, Cavia porcellus, Dunkin-Hartley, Cerebral cortex, Membrane
# condition_summary: Not Active = under 50% inhibition at 10 µM

- molecule: "OC[C@H]1OC2C3[C@@H](CO)OC(O[C@H]4[C@H](O)[C@@H](O)[C@@H](O[C@H]5[C@H](O)[C@@H](O)[C@@H](O[C@H]6[C@H](O)[C@@H](O)[C@@H](O[C@H]7[C@H](O)[C@@H](O)[C@@H](O[C@H]8[C@H](O)[C@@H](O)[C@@H](O[C@H]9[C@H](O)[C@@H](O)C(OC1[C@H](O)[C@H]2O)O[C@@H]9CO)O[C@@H]8CO)O[C@@H]7CO)O[C@@H]6CO)O[C@@H]5CO)O[C@@H]4CO)[C@H](O)[C@H]3O"
  IC50: "Not Active"
- molecule: "O=C(OC[C@H]1O[C@@H](OC(=O)c2cc(O)c(O)c(OC(=O)c3cc(O)c(O)c(O)c3)c2)[C@H](OC(=O)c2cc(O)c(O)c(OC(=O)c3cc(O)c(O)c(O)c3)c2)[C@@H](OC(=O)c2cc(O)c(O)c(OC(=O)c3cc(O)c(O)c(O)c3)c2)[C@@H]1OC(=O)c1cc(O)c(O)c(OC(=O)c2cc(O)c(O)c(O)c2)c1)c1cc(O)c(O)c(OC(=O)c2cc(O)c(O)c(O)c2)c1"
  IC50: "Not Active"
- molecule: "CC(O)C(=O)O (stereo not drawn)"
  IC50: "Not Active"

FYI, the data here is from ChEMBL document CHEMBL1909046.
